- method: HEK293 cell cytotoxicity, dose response, cytotoxicity control, ATP luminescence, dry powder, Set6 (AID 743142)
- details: HEK293T viability, ATP luminescence (CellTiter-Glo), 72 h; at 26 µM (top of the series)
Inconclusive results are not listed.
Under this convention, Y denotes activity change, negative = cytotoxicity strictly below 10% and N denotes activity change, negative = cytotoxicity at or above 10%.

                                    compound  group_label
 0  Cc1cccc(C(=O)NCCC(=O)NC2CCCc3ccccc32)c1 (centres undefined)            Y
 1  CC(NC(=O)CCNC(=O)c1ccc(Cl)cc1)c1ccc2c(c1)OCO2 (centres undefined)            N
 2  O=C(NC1CCc2ccccc21)C1CCCN(C(=O)c2ccc(Cl)cc2)C1 (centres undefined)            Y
 3  O=C(CCCNC(=O)c1ccc(Cl)c(Cl)c1)N[C@@H]1CCCc2ccccc21            Y
 4  O=C(CNC(=O)c1ccc(Cl)cc1)N[C@@H]1CCCc2ccccc21            Y
 5  CC(C)(C)OC(=O)NCCC(=O)N[C@H]1CCCc2ccccc21            Y
 6  CC(c1ccccc1)N(C)C(=O)CCNC(=O)c1ccc(Cl)cc1 (centres undefined)            Y
 7  O=C(NC1CCOc2ccccc21)C1CCCN(C(=O)c2ccc(Cl)cc2)C1 (centres undefined)            Y
 8  O=C(CCNC(=O)c1ccccc1Cl)NC1CCCc2ccccc21 (centres undefined)            N
 9  CN(C(=O)CCNC(=O)c1ccc(F)cc1F)C1CCCc2ccccc21 (centres undefined)            Y
10              NCCC(=O)N[C@@H]1CCCc2ccccc21            N
11  O=C(CNC(=O)c1ccc(Cl)c(Cl)c1)N[C@@H]1CCCc2ccccc21            Y
12  COc1cc(C(=O)NCCC(=O)NC2CCCc3ccccc32)cc(OC)c1OC (centres undefined)            Y
13  O=C(CCNC(=O)c1ccc(Cl)cc1)N[C@H]1CCCc2ccccc21            Y
14  COc1ccccc1C(=O)NCCC(=O)NC1CCCc2ccccc21 (centres undefined)            Y
15  CC(CC(=O)NC1CCCc2ccccc21)NC(=O)c1ccccc1 (centres undefined)            Y
16  O=C(CNC(=O)c1ccc(OC(F)(F)F)cc1)N[C@@H]1CCCc2ccccc21            Y
17        CC(=O)NCCC(=O)N[C@@H]1CCCc2ccccc21            N
18  O=C(CNC(=O)c1ccc(C(F)(F)F)cc1)N[C@@H]1CCCc2ccccc21            Y
19  CC(CC(=O)N(C)C1CCCc2ccccc21)NC(=O)c1ccccc1 (centres undefined)            Y
20  O=C(CCNC(=O)c1ccccc1)N[C@@H]1CCCc2ccccc21            Y
21  O=C(CCCNC(=O)c1ccc(Cl)cc1)N[C@@H]1CCCc2ccccc21            Y
22        O=C(CCNC(=O)c1ccc(Cl)cc1)NC1CCCCC1            N
23  CC(C)(C)OC(=O)NCCC(=O)N[C@@H]1CCCc2ccccc21            Y
24  O=C(CCCNC(=O)c1ccc(C(F)(F)F)cc1)N[C@@H]1CCCc2ccccc21            N
25  O=C(CCCNC(=O)c1ccc(OC(F)(F)F)cc1)N[C@@H]1CCCc2ccccc21            N
26  C[C@@H](NC(=O)CCNC(=O)c1ccc(Cl)cc1)c1ccccc1            N
27  CC(NC(=O)C1CCCN(C(=O)c2ccc(Cl)cc2)C1)c1ccccc1 (centres undefined)            N
28  COc1ccccc1C(C)NC(=O)CCNC(=O)c1ccc(Cl)cc1 (centres undefined)            Y
